FYI, the data here is from patent US10548317B2.

Property: melting point; scope: individual compounds

>>> result("Cn1nc(C(F)(F)C(F)(F)F)c(C(F)(F)F)c1-n1cc(-c2cc(C(=O)NC3CC3)c(Br)s2)cn1")
"192 to 193 °C"
>>> result("Cn1nc(C(F)(F)C(F)(F)F)c(C(F)(F)F)c1-n1cc(-n2cnc(C(=O)NC3CC3)c2)cn1")
"190 to 191 °C"
>>> result("Cn1nc(C(F)(F)C(F)(F)F)c(C(F)(F)F)c1-n1cc(-c2cc(C(=O)NC3(C#N)CC3)c(Br)s2)cn1")
"184 to 185 °C"

Kindly review the next compound as well.
In: melting point lookup needed for Cn1nc(C(F)(F)C(F)(F)F)c(C(F)(F)F)c1-n1cc(-n2cc(C(=O)NC3(C#N)CC3)nn2)cn1 , thanks.
Out: > 250 °C

====

Quick list: melting point per entry.

Known results for compounds:
>>> result("Cn1nc(C(F)(F)C(F)(F)F)c(C(F)(F)F)c1-n1cc(-c2cc(C(=O)NC3CC3)sn2)cn1 [Compound 63]")
"146 to 148 °C"
>>> result("Cn1nc(C(F)(F)C(F)(F)F)c(C(F)(F)F)c1-n1cc(-c2cc(C(=O)NC3CC3)c(C#N)s2)cn1 [Compound 59]")
"171 to 172 °C"
>>> result("Cn1nc(C(F)(F)C(F)(F)F)c(C(F)(F)F)c1-n1cc(-c2cc(C(=O)NC3CC3)no2)cn1 [Compound 66]")
"181 to 183 °C"
>>> result("Cn1nc(C(F)(F)C(F)(F)F)c(C(F)(F)F)c1-n1cc(-n2cc(C(=O)NC3CC3)nn2)cn1 [Compound 68]")
"242 to 244 °C"

In: So what does the record say about melting point for Cn1nc(C(F)(F)C(F)(F)F)c(C(F)(F)F)c1-n1cc(-c2cnc(C(=O)NC3(C#N)CC3)s2)cn1 [Compound 64] ?
Out: 158 to 159 °C

====

Listing of recorded melting point by entry.

>>> result("Cn1nc(C(F)(F)C(F)(F)F)c(C(F)(F)F)c1-n1cc(-c2cnc(C(=O)NC3CC3)s2)cn1")
"132 to 133 °C"
>>> result("COc1sc(-c2cnn(-c3c(C(F)(F)F)c(C(F)(F)C(F)(F)F)nn3C)c2)cc1C(=O)NC1CC1")
"152 to 153 °C"

In: # lookup: melting point of Cn1nc(C(F)(F)C(F)(F)F)c(C(F)(F)F)c1-n1cc(-n2cnc(C(=O)NC3(C#N)CC3)c2)cn1
Out: 195 to 197 °C
